What phosphorylation enrichment was measured for each of the following?
# Tested on: FGFR1 (UniProt P11362)
# Sequence (P11362 whole entry, looked up): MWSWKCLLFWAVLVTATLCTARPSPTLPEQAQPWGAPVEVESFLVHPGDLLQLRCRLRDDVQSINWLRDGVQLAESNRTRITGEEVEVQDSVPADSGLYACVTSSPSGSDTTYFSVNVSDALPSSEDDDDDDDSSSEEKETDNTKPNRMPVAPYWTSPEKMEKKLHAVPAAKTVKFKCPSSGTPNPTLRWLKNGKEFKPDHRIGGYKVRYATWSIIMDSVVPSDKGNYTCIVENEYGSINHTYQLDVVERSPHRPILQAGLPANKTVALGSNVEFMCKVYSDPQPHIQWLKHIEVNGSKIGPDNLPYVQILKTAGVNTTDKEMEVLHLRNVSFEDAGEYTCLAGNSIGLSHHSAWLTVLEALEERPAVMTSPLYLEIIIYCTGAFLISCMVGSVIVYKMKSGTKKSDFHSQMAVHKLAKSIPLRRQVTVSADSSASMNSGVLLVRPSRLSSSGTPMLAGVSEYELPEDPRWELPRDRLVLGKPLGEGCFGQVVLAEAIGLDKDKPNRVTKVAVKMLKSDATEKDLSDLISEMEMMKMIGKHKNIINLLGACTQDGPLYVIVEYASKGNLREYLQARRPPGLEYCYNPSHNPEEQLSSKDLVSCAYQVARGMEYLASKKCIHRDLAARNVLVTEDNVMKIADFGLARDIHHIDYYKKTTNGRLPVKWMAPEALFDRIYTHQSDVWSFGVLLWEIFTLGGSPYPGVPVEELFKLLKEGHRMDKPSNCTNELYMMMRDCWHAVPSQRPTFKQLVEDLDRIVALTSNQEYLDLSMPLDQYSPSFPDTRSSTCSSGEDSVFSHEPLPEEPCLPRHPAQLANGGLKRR
# Protocol text: phosphorylation enrichment, bacterial display (enrichment ratio); higher = better substrate or ligand; peptides without Tyr show the background;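 also: 11-residue human phosphosite peptides and single-mutation variants displayed on the E. coli surface, counted by deep sequencing, each peptide's frequency after selection divided by its frequency in the unselected input library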;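 also: frequency after pTyr selection over input frequency; kinase dosed for 20-30% of maximal phosphorylation in three min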
One number for each entry.

Sample answers from the record:
Reported phosphorylation enrichment, sequence EFGEVYKGMLK [EPHA2_Y628] : ____
0.439

If you can, please state the reported phosphorylation enrichment value of LRRFIYRPPDQ [OTOF_Y1231_R1236Q] .
0.443

Entry GIFSGYDDAWD [POLR1C_Y36_N32I_YF] has what phosphorylation enrichment?
0.531

Request the reported phosphorylation enrichment associated with FVHDNYVIQRT [CPS1_Y1450_R1453Q]
0.481

Form field: reported phosphorylation enrichment of RRYLYYYSYLL [PTEN_Y177_V175L]
1.74

May I ask what phosphorylation enrichment has been recorded for MCVKSYTIHFS [F5_Y2153_Y2149C_YF] ?
0.525

Query: phosphorylation enrichment; subject: VPLATYMQIYK [RPL21_Y30_R32Q]
0.448

Request the reported phosphorylation enrichment associated with LKVDVYRRSHK [FUT3_Y222_G223R]
0.611

The following sequences each have a reported value; give each one's phosphorylation enrichment.
1. HAVEDYQAIVD [CCT7_Y263_T259A]
2. RSHLPYDVTPE [IQGAP3_Y1098]
3. ISGGGYRACPA [FGB_Y71_R74C]
4. RQQQDYWLMDV [ANPEP_Y600_I603M]
5. AVLALYNSTRD [TGFB1_Y81]
6. ADVLDYIKALN [HPRT1_Y81_L78V]
7. TMETKYDNISR [SETDB2_Y477_V473M]
8. AISEGYKDFRA [CDA_Y79_V75I]

1: 0.864; 2: 0.752; 3: 0.469; 4: 18; 5: 0.493; 6: 0.532; 7: 0.678; 8: 0.425

I need phosphorylation enrichment for every entry listed below, if you could help.
1. ADAHHYLCKEV [JAK2_Y382]
2. SRDDDYETIAM [NPY1R_Y347]
3. CNLDTYQKRLR [PLA2G2D_Y126_R121C]

1: 0.588; 2: 0.599; 3: 0.532
